pIC50: −log10 of the molar value.
The following are reported pIC50 results, target or system Histone deacetylase 2 (Homo sapiens, UniProt Q92769).
READOUT_KIND: pIC50

COMPOUND	READOUT_KIND	TEST_VALUE
COc1cc2c(cc1OC)C(=O)C(CC1CCN(Cc3ccc(/C=C/C(=O)NO)cc3)CC1)C2 (stereo not drawn)	pIC50	6.30
COc1cc2c(cc1OC)C(=O)C(CC1CCN(S(=O)(=O)c3cccc(/C=C/C(=O)NO)c3)CC1)C2 (stereo not drawn)	pIC50	5.47
COc1cc2c(cc1OC)C(=O)C(CC1CCN(Cc3cccc(NC(=O)CCCCCCC(=O)NO)c3)CC1)C2 (stereo not drawn)	pIC50	5.85
